test: Cytotoxicity against PEK cells after 7 days; format: cell-based, Sus scrofa; settings: pig
For each entry below, report its CC50 at 168 h value.

State its CC50 at 168 h for this compound: "CC(C)(C)[Si](C)(C)OC[C@H]1O[C@@H](n2cnc3c(NCc4ccccc4)ncnc32)[C@H](O)[C@@H]1O"
> 50 µM

State its CC50 at 168 h for this compound: "OC[C@H]1O[C@@H](n2cnc3c(NCc4c5ccccc5cc5ccccc45)ncnc32)[C@H](O)[C@@H]1O"
> 50 µM

State its CC50 at 168 h for this compound: "O[C@@H]1[C@H](O)[C@@H](COC(c2ccccc2)(c2ccccc2)c2ccccc2)O[C@H]1n1cnc2c(NCc3ccccc3)ncnc21"
9 µM

====

For each entry below, report its CC50 at 24 h value.
experiment: Cytotoxicity against PEK cells after 24 hrs; assay type: cell-based, Sus scrofa; settings: pig

State its CC50 at 24 h for this molecule: "CC(C)(C)[Si](C)(C)OC[C@H]1O[C@@H](n2cnc3c(NCc4ccccc4)ncnc32)[C@H](O)[C@@H]1O"
> 50 µM

State its CC50 at 24 h for this molecule: "OC[C@H]1O[C@@H](n2cnc3c(NCc4ccc5ccc6cccc7ccc4c5c67)ncnc32)[C@H](O)[C@@H]1O"
> 50 µM

State its CC50 at 24 h for this molecule: "OC[C@H]1O[C@@H](n2cnc3c(NCc4c5ccccc5cc5ccccc45)ncnc32)[C@H](O)[C@@H]1O"
> 50 µM

State its CC50 at 24 h for this molecule: "O[C@@H]1[C@H](O)[C@@H](COC(c2ccccc2)(c2ccccc2)c2ccccc2)O[C@H]1n1cnc2c(NCc3ccccc3)ncnc21"
> 50 µM

State its CC50 at 24 h for this molecule: "CC(C)[Si](OC[C@H]1O[C@@H](n2cnc3c(NCc4ccccc4)ncnc32)[C@H](O)[C@@H]1O)(C(C)C)C(C)C"
> 50 µM

State its CC50 at 24 h for this molecule: c1ccc(CNc2ncnc3nc[nH]c23)cc1 [6-BENZYLAMINOPURINE]
> 50 µM

State its CC50 at 24 h for this molecule: OC[C@H]1O[C@@H](n2cnc3c(NCc4ccccc4)ncnc32)[C@H](O)[C@@H]1O [N6-BENZYLADENOSINE]
> 50 µM

====

assay: Cytotoxicity against PEK cells after 7 days; format: cell-based, Sus scrofa; conditions: pig
For each entry below, report its CC50 at 168 h value.

State its CC50 at 168 h for this compound: "CC(C)[Si](OC[C@H]1O[C@@H](n2cnc3c(NCc4ccccc4)ncnc32)[C@H](O)[C@@H]1O)(C(C)C)C(C)C"
> 50 µM

State its CC50 at 168 h for this compound: "c1ccc(CNc2ncnc3nc[nH]c23)cc1"
> 50 µM

State its CC50 at 168 h for this compound: "OC[C@H]1O[C@@H](n2cnc3c(NCc4ccccc4)ncnc32)[C@H](O)[C@@H]1O"
> 50 µM

State its CC50 at 168 h for this compound: "OC[C@H]1O[C@@H](n2cnc3c(NCc4ccc5ccc6cccc7ccc4c5c67)ncnc32)[C@H](O)[C@@H]1O"
9 µM

====

For each entry below, report its pEC50 value.
test system: Tick-borne encephalitis virus; assay: Antiviral activity against […] Absettarov infected in PEK cells assessed as inhibition of viral reproduction preincubated with virus for 1 hr followed by addition to PEK cells measured after 1 hr by gentian violet staining based plaque reduction assay; format: functional, cell-based
pEC50: −log10 of the molar value.

State its pEC50 for this compound: "OC/C=C\CNc1ncnc2c1ncn2[C@@H]1O[C@H](CO)[C@@H](O)[C@H]1O"
< 4.30

State its pEC50 for this compound: "O=C(Nc1nc2c(ncn2[C@@H]2O[C@H](CO)[C@@H](O)[C@H]2O)c(=O)[nH]1)c1ccccc1"
< 4.30

State its pEC50 for this compound: "CNc1ncnc2c1ncn2[C@@H]1O[C@H](CO)[C@@H](O)[C@H]1O"
< 4.30

State its pEC50 for this compound: "C[C@@]1(O)[C@@H](CO)O[C@@H](n2ccc(=O)[nH]c2=O)[C@@H]1O"
< 4.30

State its pEC50 for this compound: "C[C@@]1(O)[C@@H](CO)O[C@@H](n2ccc(N)nc2=O)[C@@H]1O"
< 4.30

State its pEC50 for this compound: OC[C@H]1O[C@@H](n2cnc3c(NCc4ccccc4)ncnc32)[C@H](O)[C@@H]1O [N6-BENZYLADENOSINE]
< 4.30

State its pEC50 for this compound: "OC[C@H]1O[C@@H](n2cnc3c(NC4CCCCC4)ncnc32)[C@H](O)[C@@H]1O"
< 4.30

State its pEC50 for this compound: "C[n+]1cn([C@@H]2O[C@H](CO)[C@@H](O)[C@H]2O)c2nc(N)nc([O-])c21"
< 4.30

State its pEC50 for this compound: "CC1(C)[C@H]2CC=C(CNc3ncnc4c3ncn4[C@@H]3O[C@H](CO)[C@@H](O)[C@H]3O)[C@@H]1C2"
< 4.30

State its pEC50 for this compound: "C=C(C)[C@@H]1CC=C(CNc2ncnc3c2ncn3[C@@H]2O[C@H](CO)[C@@H](O)[C@H]2O)CC1"
< 4.30

State its pEC50 for this compound: "Cc1cn([C@@H]2O[C@H](CO)[C@@](C)(O)[C@H]2O)c(=O)[nH]c1=O"
< 4.30

State its pEC50 for this compound: c1ccc(CNc2ncnc3[nH]cnc23)cc1 [6-BENZYLAMINOPURINE]
< 4.30

State its pEC50 for this compound: "OC[C@H]1O[C@@H](n2cnc3c(NCc4c5ccccc5cc5ccccc45)ncnc32)[C@H](O)[C@@H]1O"
4.82

State its pEC50 for this compound: "OC[C@H]1O[C@@H](n2cnc3c(NCc4ccc5ccc6cccc7ccc4c5c67)ncnc32)[C@H](O)[C@@H]1O"
5.22

State its pEC50 for this compound: OC[C@H]1O[C@@H](n2cnc3c(NCc4ccco4)ncnc32)[C@H](O)[C@@H]1O [KINETIN RIBOSIDE]
< 4.30

State its pEC50 for this compound: "CC(C)=CCC/C(C)=C/CNc1ncnc2c1ncn2[C@@H]1O[C@H](CO)[C@@H](O)[C@H]1O"
< 4.30

State its pEC50 for this compound: "OC[C@H]1O[C@@H](n2cnc3c(NC/C=C/c4ccccc4)ncnc32)[C@H](O)[C@@H]1O"
< 4.30

State its pEC50 for this compound: "C#CCNc1ncnc2c1ncn2[C@@H]1O[C@H](CO)[C@@H](O)[C@H]1O"
< 4.30

State its pEC50 for this compound: "CC(C)[Si](OC[C@H]1O[C@@H](n2cnc3c(NCc4ccccc4)ncnc32)[C@H](O)[C@@H]1O)(C(C)C)C(C)C"
5.30

State its pEC50 for this compound: "CC(C)=CCC/C(C)=C\CNc1ncnc2c1ncn2[C@@H]1O[C@H](CO)[C@@H](O)[C@H]1O"
< 4.30

State its pEC50 for this compound: "OC[C@H]1O[C@@H](n2cnc3c(NCc4ccc5ccccc5c4)ncnc32)[C@H](O)[C@@H]1O"
< 4.30

State its pEC50 for this compound: "OC[C@H]1O[C@@H](n2cnc3c(NC(c4ccccc4)(c4ccccc4)c4ccccc4)ncnc32)[C@H](O)[C@@H]1O"
< 4.30

State its pEC50 for this compound: "CC(C)(C)[Si](C)(C)OC[C@H]1O[C@@H](n2cnc3c(NCc4ccccc4)ncnc32)[C@H](O)[C@@H]1O"
4.70

State its pEC50 for this compound: "OC[C@H]1O[C@@H](n2cnc3c(NCC#Cc4ccccc4)ncnc32)[C@H](O)[C@@H]1O"
< 4.32

State its pEC50 for this compound: O=C(Nc1ccn(C2O[C@H](CO)[C@@H](O)[C@H]2O)c(=O)n1)c1ccccc1 (stereo partly specified)
< 4.30

State its pEC50 for this compound: "C=CCC#CCNc1ncnc2c1ncn2[C@@H]1O[C@H](CO)[C@@H](O)[C@H]1O"
< 4.30

State its pEC50 for this compound: "C[C@@]1(O)[C@@H](CO)O[C@@H](n2cnc3c(=O)[nH]c(N)nc32)[C@@H]1O"
< 4.30

State its pEC50 for this compound: CC(C)=CCNc1ncnc2c1ncn2[C@@H]1O[C@H](CO)[C@@H](O)[C@H]1O [RIBOPRINE]
< 4.30

State its pEC50 for this compound: "Cn1cnc2c(ncn2[C@@H]2O[C@H](CO)[C@@H](O)[C@H]2O)c1=N"
< 4.30

State its pEC50 for this compound: "CC(C)C(=O)Nc1nc2c(ncn2[C@@H]2O[C@H](CO)[C@@H](O)[C@H]2O)c(=O)[nH]1"
< 4.30

State its pEC50 for this compound: "O[C@@H]1[C@H](O)[C@@H](COC(c2ccccc2)(c2ccccc2)c2ccccc2)O[C@H]1n1cnc2c(NCc3ccccc3)ncnc21"
5.70

Just for reference, ChEMBL document CHEMBL3994636 is where these values come from.
